Data provenance: ChEMBL document CHEMBL5550173

# Tested on: HT-29
# test.protocol: Cytotoxicity against human HT-29 cells at 5 uM incubated for 72 hrs by MTS assay
# Assay type: functional
Property: Activity; scope: individual compounds
Please give a number only; it is taken to be in %.

Some compounds with recorded Activity:
# compound, endpoint.value
data = [
    ("CN1C(=O)C=CC1=O", 7.09),
    ("CCc1ccc(N2C(=O)C=C(c3cccc4c3N(C(=O)C(C)(C)C)CC4)C2=O)cc1", 7.09),
    ("CN1C(=O)C=C(c2cccc3c2N(C(=O)N2CCOCC2)CC3)C1=O", 6.82),
    ("CC1Cc2cccc(C3=CC(=O)N(C)C3=O)c2N1C(=O)C(C)(C)C (stereo unspecified)", 2.07),
    ("CCN1C(=O)C=C(c2cccc3c2N(C(=O)C(C)(C)C)CC3)C1=O", 16.99),
]

Now look at this one.
What does the record list as Activity for CC1CN(C(=O)C(C)(C)C)c2c(C3=CC(=O)N(C)C3=O)cccc21 (stereo unspecified) ?
6.02
